# TESTED SYSTEM: PI3Kα (Homo sapiens, UniProt P42336)
# Sequence (P42336 whole entry, canonical isoform): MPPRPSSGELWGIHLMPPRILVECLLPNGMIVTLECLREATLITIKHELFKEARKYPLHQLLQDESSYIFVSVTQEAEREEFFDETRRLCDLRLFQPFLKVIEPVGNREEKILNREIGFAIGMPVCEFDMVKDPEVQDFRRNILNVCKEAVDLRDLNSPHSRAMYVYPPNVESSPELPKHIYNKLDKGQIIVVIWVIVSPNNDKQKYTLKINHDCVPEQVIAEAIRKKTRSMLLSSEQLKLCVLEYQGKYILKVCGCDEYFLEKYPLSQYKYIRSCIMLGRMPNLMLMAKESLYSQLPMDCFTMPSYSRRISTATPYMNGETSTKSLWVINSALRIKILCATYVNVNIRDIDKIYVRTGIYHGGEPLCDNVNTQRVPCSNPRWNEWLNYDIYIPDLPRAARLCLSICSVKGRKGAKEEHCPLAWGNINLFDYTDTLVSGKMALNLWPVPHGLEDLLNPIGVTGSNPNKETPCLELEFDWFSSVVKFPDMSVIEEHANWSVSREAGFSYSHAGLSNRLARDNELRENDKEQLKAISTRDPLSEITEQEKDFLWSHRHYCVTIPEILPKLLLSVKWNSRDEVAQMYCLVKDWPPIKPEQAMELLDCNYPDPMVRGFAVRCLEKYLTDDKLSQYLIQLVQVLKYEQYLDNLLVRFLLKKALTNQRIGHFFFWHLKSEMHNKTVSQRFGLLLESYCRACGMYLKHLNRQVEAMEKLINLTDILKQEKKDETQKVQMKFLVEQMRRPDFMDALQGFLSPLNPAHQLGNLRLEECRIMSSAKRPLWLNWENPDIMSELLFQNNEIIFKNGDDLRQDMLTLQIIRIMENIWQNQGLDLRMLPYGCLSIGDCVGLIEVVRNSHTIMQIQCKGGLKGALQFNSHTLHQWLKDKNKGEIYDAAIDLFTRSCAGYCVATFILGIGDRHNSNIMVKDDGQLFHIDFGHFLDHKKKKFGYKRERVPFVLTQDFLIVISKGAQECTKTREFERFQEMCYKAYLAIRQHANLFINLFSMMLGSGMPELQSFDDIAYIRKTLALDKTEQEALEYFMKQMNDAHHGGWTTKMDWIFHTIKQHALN
# Sequence (P27986 whole entry partner, canonical isoform): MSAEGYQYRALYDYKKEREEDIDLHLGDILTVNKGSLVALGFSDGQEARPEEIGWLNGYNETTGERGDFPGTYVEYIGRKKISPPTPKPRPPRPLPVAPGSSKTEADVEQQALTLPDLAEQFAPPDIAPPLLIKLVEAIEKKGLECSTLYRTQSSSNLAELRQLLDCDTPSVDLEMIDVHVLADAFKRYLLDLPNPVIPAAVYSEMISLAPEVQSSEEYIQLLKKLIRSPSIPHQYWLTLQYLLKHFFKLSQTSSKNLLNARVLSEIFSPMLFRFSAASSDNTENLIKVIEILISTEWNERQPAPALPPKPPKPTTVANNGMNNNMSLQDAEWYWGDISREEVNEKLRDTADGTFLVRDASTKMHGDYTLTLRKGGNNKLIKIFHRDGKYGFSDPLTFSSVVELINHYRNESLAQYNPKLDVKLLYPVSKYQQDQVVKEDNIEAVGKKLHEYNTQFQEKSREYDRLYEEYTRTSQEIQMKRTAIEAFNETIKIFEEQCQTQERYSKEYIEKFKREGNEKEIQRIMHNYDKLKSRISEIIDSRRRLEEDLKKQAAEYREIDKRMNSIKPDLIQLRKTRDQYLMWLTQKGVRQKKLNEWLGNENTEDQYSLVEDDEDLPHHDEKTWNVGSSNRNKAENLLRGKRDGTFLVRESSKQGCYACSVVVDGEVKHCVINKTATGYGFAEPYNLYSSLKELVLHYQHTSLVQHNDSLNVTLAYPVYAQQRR
# PROCEDURE SUMMARY: PI3K kinase activity, α isoform
Measured IC50 by item

# STRUCTURE STRING, TESTED SYSTEM, IC50 / nM
measured = [
    ("Cc1c(CN2CCN(S(C)(=O)=O)CC2)cc2c(N3CCOC[C@@H]3C)nc(-c3cnc(N)cc3C(F)(F)F)nn12", "PI3Kα (Homo sapiens, UniProt P42336)", 104),
    ("CCNC(=O)Nc1cc(C(F)(F)F)c(-c2nc(N3CCOCC3)c3cc(CN4CCN(S(C)(=O)=O)CC4)c(C)n3n2)cn1", "PI3Kα (Homo sapiens, UniProt P42336)", 21.8),
    ("Cc1c(CN2CCN(S(C)(=O)=O)CC2)cc2c(N3CCOCC3)nc(-c3cnc(NC(=O)NC(C)C)cc3C(F)(F)F)nn12", "PI3Kα (Homo sapiens, UniProt P42336)", 122),
    ("CCN1CCN(Cc2cc3c(N4CCOCC4)nc(-c4cnc(N)cc4C(F)(F)F)nn3c2C)CC1", "PI3Kα (Homo sapiens, UniProt P42336)", 624),
    ("COC(=O)Nc1cc(C(F)(F)F)c(-c2nc(N3CCOCC3)c3cc(CN4CCN(S(C)(=O)=O)CC4)c(C)n3n2)cn1", "PI3Kα (Homo sapiens, UniProt P42336)", 76.2),
    ("Cc1c(CN2CCC(C(C)(C)O)CC2)cc2c(N3CCOCC3)nc(-c3cnc(N)cc3C(F)(F)F)nn12", "PI3Kα (Homo sapiens, UniProt P42336)", 424),
    ("Cc1c(CN2CCN(S(C)(=O)=O)CC2)cc2c(N3CCOCC3)nc(-c3cnc(NC(=O)Nc4ccc(F)cc4)cc3C(F)(F)F)nn12", "PI3Kα (Homo sapiens, UniProt P42336)", 18.7),
    ("Cc1c(CN2CCN(S(C)(=O)=O)CC2)cc2c(N3CCOCC3)nc(-c3cnc(NC(=O)NC4CC4)cc3C(F)(F)F)nn12", "PI3Kα (Homo sapiens, UniProt P42336)", 10.8),
    ("CS(=O)(=O)N1CCN(Cc2cc3c(N4CCOCC4)nc(-c4cnc(N)cc4C(F)(F)F)nn3c2Cl)CC1", "PI3Kα (Homo sapiens, UniProt P42336)", 21.3),
    ("Cc1c(CNCCCN(C)C)cc2c(N3CCOCC3)nc(-c3cnc(N)cc3C(F)(F)F)nn12", "PI3Kα (Homo sapiens, UniProt P42336)", 321),
    ("Cc1c(CN2CCN(C(=O)[C@H](C)O)CC2)cc2c(N3CCOCC3)nc(-c3cnc(N)cc3C(F)(F)F)nn12", "PI3Kα (Homo sapiens, UniProt P42336)", 77.5),
    ("Cc1c(CN2CCC(N(C)C)CC2)cc2c(N3CCOCC3)nc(-c3cnc(N)cc3C(F)(F)F)nn12", "PI3Kα (Homo sapiens, UniProt P42336)", 439),
    ("Cc1c(CN2CCN(S(C)(=O)=O)CC2)cc2c(N3CCOCC3)nc(-c3cnc(N)cc3C(F)(F)F)nn12", "PI3Kα (Homo sapiens, UniProt P42336)", 26.4),
]

Data origin: patent US11214572B2
